Recorded values, source the RNAGym collection of RNA variant scans (doi:10.7554/elife.80360).

self-cleavage values, listed per item
B1: Hairpin Ribozyme (parent)
chain: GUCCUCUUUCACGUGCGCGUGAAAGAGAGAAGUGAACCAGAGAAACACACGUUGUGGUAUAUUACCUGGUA

Variants of: B1
Test: self-cleavage, relative activity (ratio to wild type); higher = more cleavage; co-transcriptional
Could you respond with only the numeric value?

Q: Report self-cleavage for GUCCUCUUUCACGUGCGCGUGAAAGAGAGAAGUGAACCAGAGGAACACAAGUUGUGGUAUAUUACCUGGUA [A43G C50A] please.
Result: 0.131

Further cases:
Q: Record request: self-cleavage value, item GUCCUCUUUAAAGUGCGCGUGAAAGAGAGAAGUGAACCAGAGAAACACACGUUGUGGUAUAUUACCUGGUA [C10A C12A]
Result: 0.476

Q: Need self-cleavage of GUCCUCUUUCACGUUCGCGUGAAAGAGAGAACUGAACCAGAGAAACACACGUUGUGGUAUAUUACCUGGUA [G15U G32C] , thanks.
Result: 0.122
